tested on: TGFβ signal; assay: TGFβ signal inhibitory activity, (SBE)4-Luc reporter in A549 cells (Test Examples 1A and 1B); type: cell-based, human; conditions: Homo sapiens, A549; 3 µM; compounds of Reference Examples (Test Example 1B); read-out: TGFβ inhibition rate, %
Label rule, in plain words: inhibition at 3 µM of 60% and up is condition met, under 60% is condition not met.

- COMPOUND: "COc1cc2nccc(Oc3cc4ccccc4cc3C(C)=O)c2cc1OC"
  LABEL VALUE: "condition met"
- COMPOUND: "COc1cc2nccc(Oc3cc(Cl)cnc3OC3CCCC3)c2cc1OC"
  LABEL VALUE: "condition not met"
- COMPOUND: "COc1cc2c(Oc3cc(C)c(C)cc3C(C)=O)ccnc2cc1OCCCn1ccnc1"
  LABEL VALUE: "condition met"
- COMPOUND: "COc1cc2nccc(Oc3ccc(C)nc3-c3ccccc3OC)c2cc1OC"
  LABEL VALUE: "condition not met"
- COMPOUND: "COc1cc2c(Oc3cc4cnccc4nc3C)ccnc2cc1OCc1ccccc1"
  LABEL VALUE: "condition not met"
- COMPOUND: "COc1cc2c(Oc3cc4ccccc4nc3C)ccnc2cc1CCCO"
  LABEL VALUE: "condition not met"

Challenge: Does the compound COc1cc2nccc(Oc3ccc(C)nc3-c3cccnc3)c2cc1OC have recorded inhibition at 3 µM that is 60% or more?
Response given: condition met

Challenge: Does the compound COc1cc2c(Oc3cc(C)c(C)nc3-c3ccc(C)cn3)ccnc2cc1OCCO have recorded inhibition at 3 µM that is 60% or more?
Response given: condition met

Challenge: Does the compound COc1cc2c(Oc3cc4cccnc4nc3C)ccnc2cc1OCCN1CCCC(O)C1 (stereo not drawn) have recorded inhibition at 3 µM that is 60% or more?
Response given: condition met

* * *

system: TGFβ signal; test: TGFβ signal inhibitory activity, (SBE)4-Luc reporter in A549 cells (Test Examples 1A and 1B); type: cell-based, human; settings: Homo sapiens, A549; test compound 3 µM; Reference Examples, Table 1B; read-out: TGFβ inhibition rate, %
Label rule, in plain words: inhibition at 3 µM of 20% and up is class 1, under 20% is class 0.

Some solved entries appear below for comparison.
- COMPOUND: "COc1cc2nccc(Oc3cc(C)ccc3C(C)=O)c2cc1OC"
  LABEL VALUE: "class 1"
- COMPOUND: "CCOC(=O)c1ccc(C)cc1Oc1ccnc2cc(OC)c(OC)cc12"
  LABEL VALUE: "class 1"

Below: the item to evaluate.
Challenge: Does the compound COc1cc2nccc(Oc3ccc4c(ccn4C)c3)c2cc1OC have recorded inhibition at 3 µM that is 20% or more?
Response given: class 0

* * *

system: TGFβ signal; experiment: TGFβ signal inhibitory activity, (SBE)4-Luc reporter in A549 cells (Test Examples 1A and 1B); format: cell-based, human; conditions: Homo sapiens, A549; 3 µM; compounds of Reference Examples (Test Example 1B); read-out: TGFβ inhibition rate, %
ASSAY ENDPOINT: inhibition at 3 µM (%)
Give just the numeric value; % need not be written.

Example results:
- COMPOUND: "COc1cc2nccc(Oc3cc(C)nc4ccccc34)c2cc1OC [Compound r309]"
  UNITS: "%"
  inhibition at 3 µM: 41
- COMPOUND: "COc1cc2nccc(Oc3ccc(C)cc3C(O)CCCCCCCCCO)c2cc1OC (stereo not drawn) [r165]"
  UNITS: "%"
  inhibition at 3 µM: 38
- COMPOUND: "COc1ccc(Oc2ccnc3cc(OC)c(OC)cc23)c(C(=O)c2nccs2)c1 [r192]"
  UNITS: "%"
  inhibition at 3 µM: 79

Please fill in: inhibition at 3 µM reported for COc1cc2c(Oc3cc(C)c(C)nc3-c3ccccn3)ccnc2cc1OCC1CO1 (stereo not drawn) [Compound r341] = 99

Please fill in: inhibition at 3 µM reported for COc1cc2nccc(Oc3ccc(C)cc3C(=O)c3ccc(OCCN4CCOCC4)cc3)c2cc1OC [Compound r191] = 39

Please fill in: inhibition at 3 µM reported for COc1cc2nccc(Oc3cc(C)c(C)cc3-c3cccnc3)c2cc1OC [r170] = 76

Please fill in: inhibition at 3 µM reported for CCCCc1ccc(Oc2ccnc3cc(OC)c(OC)cc23)c(C(C)=O)c1 [r174] = 57

Please fill in: inhibition at 3 µM reported for COc1cc2nccc(Oc3ccc(C)nc3-c3cccc(Cl)c3)c2cc1OC [Compound r241] = 96

Please fill in: inhibition at 3 µM reported for CCCCc1ccc(-c2nc(C)ccc2Oc2ccnc3cc(OC)c(OC)cc23)cc1 [Compound r244] = -3
